# system_name: hGLP-1R (Homo sapiens, UniProt P43220)
# Sequence (P43220 24-463): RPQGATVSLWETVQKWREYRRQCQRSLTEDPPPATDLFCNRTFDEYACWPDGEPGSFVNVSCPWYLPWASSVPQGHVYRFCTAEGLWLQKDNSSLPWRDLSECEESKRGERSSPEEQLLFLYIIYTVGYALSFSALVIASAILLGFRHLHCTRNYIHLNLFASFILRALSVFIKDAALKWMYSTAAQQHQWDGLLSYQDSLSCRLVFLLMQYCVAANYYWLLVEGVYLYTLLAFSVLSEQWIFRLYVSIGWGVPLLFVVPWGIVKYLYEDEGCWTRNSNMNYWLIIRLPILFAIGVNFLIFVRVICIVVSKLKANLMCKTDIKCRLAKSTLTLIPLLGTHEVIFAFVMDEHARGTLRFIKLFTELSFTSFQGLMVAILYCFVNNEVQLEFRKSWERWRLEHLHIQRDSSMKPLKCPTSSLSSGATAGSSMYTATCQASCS
# experimental_details: Functional cAMP activation in the presence of 0.1% casein (no HSA);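 note: intracellular cAMP rise after 30 min at 37 °C read by HTRF, normalized between buffer only (0%) and maximal control ligand (100%), four-parameter variable-slope fit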
# Type: cell-based
# experimental_context: read-out: Relative cAMP EC50, hGLP-1R
Starred links: 1 amine or outer side, 2 acyl side, 3 side chain; linkers in the order of their positions; H or OH if unused. Non-standard residues stand in square brackets, D forms with d. Groups on a side chain read outwards from the residue. *: point of attachment. C18 diacid = O=C(O)CCCCCCCCCCCCCCCCC(=O)*; αMePhe(2-F) = C[C@](N)(Cc1ccccc1F)C(=O)O; γGlu = O=C(O)[C@H](CCC(=O)[*:2])N[*:1]; αMe4Pal = C[C@](N)(Cc1ccncc1)C(=O)O; αMeY = C[C@](N)(Cc1ccc(O)cc1)C(=O)O; 4Pal = N[C@@H](Cc1ccncc1)C(=O)O; αMeL = CC(C)C[C@](C)(N)C(=O)O; αMeS = C[C@](N)(CO)C(=O)O; Orn = NCCC[C@H](N)C(=O)O; AEEA = NCCOCCOCC(=O)O; Aib = CC(C)(N)C(=O)O
property: pEC50
Note on units: pEC50 is unitless, being -log10 of a concentration expressed in mol/L.

Field pEC50 (entry H-Y[Aib]QGTFTSDFS[Orn][αMeL]LDKK([AEEA-γGlu-C18 diacid])AQ[Aib]AFIE[4Pal]LLEGGPSSGAPPPGGS-NH2 [Example 496] ) reads 8.01

Field pEC50 (entry H-Y[Aib]QGT[αMePhe(2-F)]TSD[4Pal][αMeS]I[αMeL]LD[Orn]K([γGlu-γGlu-C18 diacid])AQ[Aib][Orn]FI[dE][αMeY]LAEGGPSSGEPPPSGAEE-NH2 [Example 591] ) reads 9.11

Field pEC50 (entry H-Y[Aib]QGT[αMePhe(2-F)]TSD[4Pal]SILLDKK([AEEA-γGlu-C18 diacid])AQ[Aib]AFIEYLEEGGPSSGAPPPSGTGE-NH2 [Example 662] ) reads 9.02

Field pEC50 (entry H-Y[Aib]QGT[αMePhe(2-F)]TSD[4Pal]SI[αMeL]LD[Orn]K([AEEA-γGlu-C18 diacid])AQ[αMe4Pal][Orn]FI[dE][αMeY]LIEGGPSSGEPPPESEE-NH2 [Example 753] ) reads 9.57

Field pEC50 (entry H-Y[Aib]QGT[αMePhe(2-F)]TSD[4Pal]SI[αMeL]LD[Orn]K([γGlu-γGlu-C18 diacid])AQ[αMe4Pal][Orn]FI[dE][αMeY]LIEGGPSSGEPPPETE-NH2 [Example 686] ) reads 9.53
